pIC50 overview
measurementTarget: Human P2X7 (hP2X7) receptor (Homo sapiens, UniProt Q99572)
Construct: myc-His (from the pcDNA3.1/myc-HisA vector); expressed in transfected cells
Sequence (Q99572 1-595): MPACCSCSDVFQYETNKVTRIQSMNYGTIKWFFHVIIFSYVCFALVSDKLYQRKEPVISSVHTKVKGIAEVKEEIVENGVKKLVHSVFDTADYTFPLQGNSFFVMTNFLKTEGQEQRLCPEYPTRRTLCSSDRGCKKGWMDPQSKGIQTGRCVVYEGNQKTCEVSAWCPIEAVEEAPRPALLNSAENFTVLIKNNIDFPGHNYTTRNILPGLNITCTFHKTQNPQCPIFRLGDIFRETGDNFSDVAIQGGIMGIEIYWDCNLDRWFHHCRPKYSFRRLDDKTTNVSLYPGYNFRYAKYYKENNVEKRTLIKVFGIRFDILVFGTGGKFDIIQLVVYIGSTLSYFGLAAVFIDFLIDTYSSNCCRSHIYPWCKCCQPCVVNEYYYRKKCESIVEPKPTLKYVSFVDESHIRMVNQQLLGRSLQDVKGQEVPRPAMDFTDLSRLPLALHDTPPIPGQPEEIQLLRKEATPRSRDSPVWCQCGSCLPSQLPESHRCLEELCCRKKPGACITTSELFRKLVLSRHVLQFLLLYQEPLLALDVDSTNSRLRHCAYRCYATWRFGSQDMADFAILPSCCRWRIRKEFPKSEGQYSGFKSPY
assay: Dye assay: BzATP-induced Yo-Pro-1 uptake in HEK293 cells stably expressing hP2X7
Type: cell-based
experimentalParameters: BzATP (0.1 mM)-induced Yo-Pro-1 uptake, compounds 30 min pre-treatment, 90 min incubation
pIC50: −log10 of the molar value. Structures can show the parent of a compound that is named as a salt.
endpointLabel: pIC50

- compound: "C[C@@H]1[C@H]2C[C@@H](C[C@H]1Nc1cnn(CC(=O)NCc3cc[n+]([O-])cc3)c(=O)c1Br)C2(C)C [Synthetic Example 158]"
  measured: 7.35
- compound: "C[C@@H]1[C@H]2C[C@@H](C[C@H]1Nc1cnn(CC(=O)NC(CCO)c3ccncc3)c(=O)c1Cl)C2(C)C (stereo partly shown)"
  measured: 7.44
- compound: "CC(NC(=O)Cn1ncc(N[C@@H]2C[C@@H]3C[C@H]([C@H]2C)C3(C)C)c(Br)c1=O)c1ccc(F)cc1 (stereo partly shown)"
  measured: 7.52
- compound: "C[C@@H]1[C@H]2C[C@@H](C[C@H]1Nc1cnn(CC(=O)NC(C#N)c3ccccc3)c(=O)c1Br)C2(C)C (stereo partly shown)"
  measured: 7.27
- compound: "C[C@@H]1[C@H]2C[C@@H](C[C@H]1Nc1cnn(CC(=O)NCC3CCCCC3)c(=O)c1Br)C2(C)C"
  measured: 7.08
- compound: "CC(NC(=O)Cn1ncc(NC2C3CCCC2CCC3)c(Cl)c1=O)c1ccnc(F)c1 (stereo not shown)"
  measured: 8.64
- compound: "CCC(NC(=O)Cn1ncc(NC23CC4CC(CC2C4)C3)c(Cl)c1=O)c1ccncn1 (stereo not shown)"
  measured: 7.35
- compound: "C[C@@H]1[C@H]2C[C@@H](C[C@H]1Nc1cnn(CC(=O)N[C@H](CO)c3ccccc3)c(=O)c1Cl)C2(C)C"
  measured: 7.52
- compound: "C[C@@H]1[C@H]2C[C@@H](C[C@H]1Nc1cnn(CC(=O)NCC3CCOCC3)c(=O)c1Cl)C2(C)C"
  measured: 7.43
- compound: "C[C@@H]1[C@H]2C[C@@H](C[C@H]1Nc1cnn(CC(=O)NCc3ccnc(C#N)c3)c(=O)c1Br)C2(C)C"
  measured: 7.51
- compound: "CCC(NC(=O)Cn1ncc(NC23CC4CC(CC2C4)C3)c(Cl)c1=O)c1ccncc1 (stereo not shown)"
  measured: 8.09
- compound: "C[C@@H]1[C@H]2C[C@@H](C[C@H]1Nc1c(O)nn(CC(=O)NCc3ccncc3)c(=O)c1Cl)C2(C)C [Synthetic Example 390, Hydrochloride]"
  measured: 6.57
- compound: "C[C@@H]1[C@H]2C[C@@H](C[C@H]1Nc1cnn(CC(=O)NCc3ccncc3)c(=O)c1-c1ccncc1)C2(C)C [Synthetic Example 379]"
  measured: 6.62
- compound: "C[C@@H](NC(=O)Cn1ncc(NC2C3CCCC2CCC3)c(Cl)c1=O)c1ccncc1 (stereo partly shown)"
  measured: 8.68
- compound: "C[C@@H]1[C@H]2C[C@@H](C[C@H]1Nc1cnn(CC(=O)NCCc3ccccc3)c(=O)c1Br)C2(C)C"
  measured: 7.07
- compound: "CC(NC(=O)Cn1ncc(NC23CC4CC(CC(C4)C2)C3)c(Cl)c1=O)c1ccnnc1 (stereo not shown)"
  measured: 8.52
